B1: ZNF449 (parent)
chain: RIHSGEEPHKCPECGKRFLRSSDL

Variants of: B1
METHOD DESCRIPTION: protein stability index of a GFP-peptide fusion (GPS, HEK-293T) (PSI 1-6); higher = more stable;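 also: lentivirally expressed fusions sorted by FACS into six bins by GFP to DsRed ratio, PSI derived from sequencing read proportions per bin multiplied by bin number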
RECORDED CONDITIONS: c terminus: a fixed tail appended
Below, each entry is listed with its recorded protein stability index.
METRIC NAME: protein stability index

    changes              metric_name  result_number
 0      E7T  protein stability index           3.04
 1      G5S  protein stability index           4.04
 2     K16L  protein stability index           2.78
 3     F18R  protein stability index           3.33
 4     P12W  protein stability index           2.05
 5      R1K  protein stability index            3.6
 6     C11D  protein stability index           4.17
 7     K10T  protein stability index           3.82
 8      G5N  protein stability index           3.44
 9     C14T  protein stability index           4.69
10     E13D  protein stability index           2.59
11      E6G  protein stability index           3.23
12      E7N  protein stability index           2.51
13      E7K  protein stability index           2.46
14     R20L  protein stability index           3.32
15     R20T  protein stability index           3.17
16     E13H  protein stability index           3.34
17     P12K  protein stability index            3.2
18     K10Y  protein stability index           3.94
19     S21T  protein stability index           3.56
20      I2A  protein stability index           3.42
21     S21L  protein stability index           2.48
22     L24F  protein stability index            3.3
23     K16G  protein stability index           3.13
24     S21K  protein stability index           4.17
25     K10N  protein stability index           3.42
26     S22I  protein stability index           2.77
27     E13P  protein stability index            3.6
28     K10I  protein stability index           3.74
29      I2S  protein stability index           3.18
30      R1A  protein stability index           3.75
31     R20P  protein stability index           3.99
